target: ferroportin (Homo sapiens, UniProt Q9NP59); assay: FPN activity assay: internalization/degradation of ferroportin-GFP in stably transfected HEK293 cells (loss of GFP fluorescence); assay type: cell-based; conditions: ferroportin-GFP HEK293 cells, compound incubated at least 18 hours; read-out: FPN IC50
Sequence (Q9NP59 whole entry): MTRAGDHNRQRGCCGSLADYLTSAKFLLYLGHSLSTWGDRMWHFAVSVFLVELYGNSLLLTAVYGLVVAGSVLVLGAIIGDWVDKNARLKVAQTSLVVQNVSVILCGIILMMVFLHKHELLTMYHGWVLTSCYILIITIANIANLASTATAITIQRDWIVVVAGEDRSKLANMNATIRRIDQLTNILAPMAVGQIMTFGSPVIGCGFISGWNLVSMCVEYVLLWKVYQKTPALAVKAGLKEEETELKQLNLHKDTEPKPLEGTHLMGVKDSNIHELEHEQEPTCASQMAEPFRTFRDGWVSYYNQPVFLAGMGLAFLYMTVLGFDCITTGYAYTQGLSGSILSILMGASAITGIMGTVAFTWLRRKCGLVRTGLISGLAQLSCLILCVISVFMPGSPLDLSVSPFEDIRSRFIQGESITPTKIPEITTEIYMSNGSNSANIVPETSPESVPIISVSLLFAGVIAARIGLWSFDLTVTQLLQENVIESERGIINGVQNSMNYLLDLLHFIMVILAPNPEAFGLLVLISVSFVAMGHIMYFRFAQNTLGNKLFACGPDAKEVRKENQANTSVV
Starred links: 1 amine or outer side, 2 acyl side, 3 side chain; linkers in the order of their positions; H or OH if unused. Non-standard residues stand in square brackets, D forms with d. Residues, ends and D or L forms follow the SMILES beside them. Groups on a side chain read outwards from the residue. *: point of attachment. C18 diacid = O=C(O)CCCCCCCCCCCCCCCCC(=O)*; Dip = N[C@H](C(=O)O)C(c1ccccc1)c1ccccc1; γGlu = O=C(O)[C@H](CCC(=O)[*:2])N[*:1]; Palmitoyl = CCCCCCCCCCCCCCCC(=O)*; β3hF = N[C@H](CC(=O)O)Cc1ccccc1; Isovaleryl = CC(C)CC(=O)*; AEEA = NCCOCCOCC(=O)O; NHBn = c1ccc(CN*)cc1; Ahx = NCCCCCC(=O)O
Measurement Label: DC50

The examples below pair each entry with its known result.
CCCCCCCCCCCCCCCC(=O)NCCCCCC(=O)NCCCC[C@H](NC(C)=O)C(=O)N[C@H](C(=O)N[C@@H](Cc1c[nH]cn1)C(=O)N[C@H](C(=O)N1CCC[C@H]1C(=O)N[C@@H](C)C(=O)N[C@H](C(=O)N[C@H](CCCCN)C(=O)N[C@H](CC(N)=O)Cc1ccccc1)[C@@H](C)CC)C(c1ccccc1)c1ccccc1)[C@@H](C)O [compound 201] (Ac-K([Ahx-Palmitoyl])TH[Dip]PAI[dK][β3hF]-NH2)    > 3 µM
CC[C@H](C)[C@H](NC(=O)[C@H](C)NC(=O)[C@@H]1CCCN1C(=O)[C@@H](NC(=O)[C@H](Cc1c[nH]cn1)NC(=O)[C@@H](NC(=O)[C@H](CCCCNC(=O)COCCOCCNC(=O)COCCOCCNC(=O)CCCCCNC(=O)CCCCCCCCCCCCCCCCC(=O)O)NC(C)=O)[C@@H](C)O)C(c1ccccc1)c1ccccc1)C(=O)N[C@H](CCCCN)C(=O)N[C@H](CC(N)=O)Cc1ccccc1 [compound 234] (Ac-K([AEEA-AEEA-Ahx-C18 diacid])TH[Dip]PAI[dK][β3hF]-NH2)    > 3 µM

Note: attention shifts to another entry.
For the molecule shown here, CC(C)CC(=O)N[C@@H](CC(C)C)C(=O)N[C@H](C(=O)N[C@@H](Cc1c[nH]cn1)C(=O)N[C@H](C(=O)N[C@@H](CCCCNC(=O)COCCOCCNC(=O)COCCOCCNC(=O)CC[C@H](NC(=O)CCCCCCCCCCCCCCCCC(=O)O)C(=O)O)C(=O)NCc1ccccc1)C(c1ccccc1)c1ccccc1)[C@@H](C)O [compound 227] (Isovaleryl-LTH[Dip]K([AEEA-AEEA-γGlu-C18 diacid])-NHBn) , give the reported DC50.
> 3 µM
